Taken from the supplement of paper PMC9732359.

run.description: protein stability index of a GFP-peptide fusion (yeast GPS) (PSI 1-4); higher = more stable; sorted into four equal gates, so the index is relative within each strain
protocol.conditions: san1∆
Record form. Attribute: protein stability index. Fill in for each entry.
Could you keep your reply to the number by itself?

Request: Which protein stability index is reported for this sequence? TSFEQGEITFDGIGGLT [RPT4]
Result: 3.05

Request: I have this sequence here, RNEVLESMDFLVLADAF [YCS4] , and I need its recorded protein stability index.
Result: 2.43

Request: Name the reported protein stability index value associated with the sequence QQLDSFNQFVDYTLQDI [RPB2]
Result: 2.75

Request: Would you kindly share the measured protein stability index for AQRLQISDYQQLESIYF [SWI1] ?
Result: 2.58

Request: Need protein stability index, item EHGYQSRGFEVMYNGHT [RPB2]
Result: 2.88

Request: Looking for the measured protein stability index of SVRGAIVGPDLAVLALV [RPS6A] , can you help?
Result: 1.14

Request: I'd like to know its protein stability index. The sequence in question is RHSNALVDILPPDSDSS [RPT3]
Result: 2.69

Request: I would be grateful if you could share the reported protein stability index for DEIDAALDFRNVSIVAN [SMC4] .
Result: 2.03
